Values were extracted from ChEMBL document CHEMBL4619777.

# system.under.test: Genome polyprotein (West Nile virus) (UniProt P06935)
# Sequence (P06935 whole entry): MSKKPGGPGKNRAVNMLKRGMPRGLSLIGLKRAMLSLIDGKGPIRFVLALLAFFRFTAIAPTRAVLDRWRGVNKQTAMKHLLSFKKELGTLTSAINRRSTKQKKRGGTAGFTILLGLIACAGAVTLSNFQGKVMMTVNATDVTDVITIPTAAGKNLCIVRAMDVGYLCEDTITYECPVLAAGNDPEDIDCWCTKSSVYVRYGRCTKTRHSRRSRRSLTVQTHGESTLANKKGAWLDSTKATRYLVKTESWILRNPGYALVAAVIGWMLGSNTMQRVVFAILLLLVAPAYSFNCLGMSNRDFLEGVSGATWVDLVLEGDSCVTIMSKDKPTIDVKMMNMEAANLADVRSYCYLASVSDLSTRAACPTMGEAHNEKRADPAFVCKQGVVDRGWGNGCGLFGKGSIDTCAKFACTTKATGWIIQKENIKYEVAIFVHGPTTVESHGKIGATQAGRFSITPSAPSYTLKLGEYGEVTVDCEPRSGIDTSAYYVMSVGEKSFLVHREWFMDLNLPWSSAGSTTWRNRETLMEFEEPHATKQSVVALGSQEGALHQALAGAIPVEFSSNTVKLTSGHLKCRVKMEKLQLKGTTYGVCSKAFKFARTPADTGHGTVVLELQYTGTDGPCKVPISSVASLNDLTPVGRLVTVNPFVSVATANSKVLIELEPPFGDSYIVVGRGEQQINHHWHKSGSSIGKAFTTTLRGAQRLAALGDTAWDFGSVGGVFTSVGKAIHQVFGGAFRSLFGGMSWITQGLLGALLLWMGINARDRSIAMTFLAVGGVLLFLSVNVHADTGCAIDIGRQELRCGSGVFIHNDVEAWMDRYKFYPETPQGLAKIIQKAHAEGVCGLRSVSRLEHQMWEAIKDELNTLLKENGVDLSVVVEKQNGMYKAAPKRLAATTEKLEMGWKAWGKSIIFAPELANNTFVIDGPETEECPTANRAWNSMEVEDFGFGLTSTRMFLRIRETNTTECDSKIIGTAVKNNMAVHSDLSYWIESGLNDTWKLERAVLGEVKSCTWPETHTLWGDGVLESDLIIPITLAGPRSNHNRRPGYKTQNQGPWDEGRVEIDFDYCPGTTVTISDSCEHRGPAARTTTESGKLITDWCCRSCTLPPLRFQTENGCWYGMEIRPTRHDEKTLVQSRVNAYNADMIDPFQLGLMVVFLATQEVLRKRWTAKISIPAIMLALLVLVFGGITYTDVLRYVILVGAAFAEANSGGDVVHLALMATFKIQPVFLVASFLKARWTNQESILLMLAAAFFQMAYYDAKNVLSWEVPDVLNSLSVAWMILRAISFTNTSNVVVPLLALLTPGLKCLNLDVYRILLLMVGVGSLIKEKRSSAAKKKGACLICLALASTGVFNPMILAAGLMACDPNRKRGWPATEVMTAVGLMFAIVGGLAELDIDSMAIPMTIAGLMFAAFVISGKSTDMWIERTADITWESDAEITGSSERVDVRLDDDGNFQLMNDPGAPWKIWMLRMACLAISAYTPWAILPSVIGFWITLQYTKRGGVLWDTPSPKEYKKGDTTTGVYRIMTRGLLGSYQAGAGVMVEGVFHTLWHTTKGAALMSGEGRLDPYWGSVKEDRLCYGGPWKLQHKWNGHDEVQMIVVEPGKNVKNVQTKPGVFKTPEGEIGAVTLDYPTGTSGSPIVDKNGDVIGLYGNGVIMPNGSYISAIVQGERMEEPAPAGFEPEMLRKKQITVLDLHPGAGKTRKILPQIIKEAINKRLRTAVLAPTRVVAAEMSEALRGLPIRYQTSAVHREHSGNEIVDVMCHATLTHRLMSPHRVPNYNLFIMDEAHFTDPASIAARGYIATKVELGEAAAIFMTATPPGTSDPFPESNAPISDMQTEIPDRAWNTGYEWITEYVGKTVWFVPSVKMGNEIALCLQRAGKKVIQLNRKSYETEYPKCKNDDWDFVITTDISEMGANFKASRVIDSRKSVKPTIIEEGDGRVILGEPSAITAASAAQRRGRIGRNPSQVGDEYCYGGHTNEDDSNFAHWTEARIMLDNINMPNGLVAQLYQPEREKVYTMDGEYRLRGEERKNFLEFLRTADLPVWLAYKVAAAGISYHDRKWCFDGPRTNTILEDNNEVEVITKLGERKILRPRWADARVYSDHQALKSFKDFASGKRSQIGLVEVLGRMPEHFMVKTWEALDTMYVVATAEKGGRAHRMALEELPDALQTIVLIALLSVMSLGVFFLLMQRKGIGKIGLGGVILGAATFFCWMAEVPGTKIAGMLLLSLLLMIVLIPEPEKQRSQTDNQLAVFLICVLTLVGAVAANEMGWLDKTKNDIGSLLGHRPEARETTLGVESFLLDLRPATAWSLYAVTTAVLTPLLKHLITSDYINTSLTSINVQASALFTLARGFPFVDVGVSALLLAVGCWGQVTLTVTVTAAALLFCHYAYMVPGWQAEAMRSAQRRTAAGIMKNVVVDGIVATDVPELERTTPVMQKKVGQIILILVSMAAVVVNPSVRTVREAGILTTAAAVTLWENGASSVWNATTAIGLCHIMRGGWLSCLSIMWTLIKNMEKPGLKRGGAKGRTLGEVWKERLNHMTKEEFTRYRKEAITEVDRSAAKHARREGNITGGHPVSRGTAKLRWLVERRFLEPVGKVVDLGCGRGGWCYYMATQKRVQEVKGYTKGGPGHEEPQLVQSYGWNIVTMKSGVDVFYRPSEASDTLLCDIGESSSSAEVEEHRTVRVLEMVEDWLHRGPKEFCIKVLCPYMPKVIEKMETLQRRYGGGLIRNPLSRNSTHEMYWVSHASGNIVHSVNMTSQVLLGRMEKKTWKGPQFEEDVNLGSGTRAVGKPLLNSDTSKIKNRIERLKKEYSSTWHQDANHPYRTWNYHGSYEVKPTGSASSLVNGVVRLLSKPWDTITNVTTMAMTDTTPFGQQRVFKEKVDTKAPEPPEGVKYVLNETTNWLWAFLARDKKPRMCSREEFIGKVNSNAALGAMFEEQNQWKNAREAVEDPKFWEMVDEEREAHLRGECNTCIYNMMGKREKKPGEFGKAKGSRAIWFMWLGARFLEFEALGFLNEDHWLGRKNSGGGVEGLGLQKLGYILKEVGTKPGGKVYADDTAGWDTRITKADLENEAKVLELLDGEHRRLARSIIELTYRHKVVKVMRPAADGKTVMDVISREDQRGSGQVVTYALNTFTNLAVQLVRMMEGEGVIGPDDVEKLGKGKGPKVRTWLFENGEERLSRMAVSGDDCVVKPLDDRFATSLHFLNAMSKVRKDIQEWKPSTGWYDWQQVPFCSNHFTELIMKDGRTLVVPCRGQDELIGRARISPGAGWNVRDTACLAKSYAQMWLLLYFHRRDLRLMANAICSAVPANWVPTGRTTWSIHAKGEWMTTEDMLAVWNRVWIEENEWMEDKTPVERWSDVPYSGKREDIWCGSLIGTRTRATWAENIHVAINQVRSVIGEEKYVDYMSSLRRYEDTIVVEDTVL
# assay.overview: Inhibition of West Nile virus NS2B-NS3 protease expressed in Escherichia coli BL21 lambda (DE3) cells at 50 uM using Abz-Gly-Leu-Lys-Arg-Gly-Gly-3-(NO2)Tyr as substrate preincubated for 15 mins followed by substrate addition measured for 15 mins by fluorimetric analysis relative to control
Residues, ends and D or L forms follow the SMILES beside them. *: point of attachment. Bz = O=C(c1ccccc1)*
# maps each entry to its inhibition

Value of inhibition reported for the molecule CCCCCC(=O)N[C@H](C(=O)NCc1ccc(CN)cc1)c1ccc(OCc2ccccc2)cc1.O=C(O)C(F)(F)F is 84.8%

Value of inhibition reported for the molecule CCCCCC(=O)N[C@H](C(=O)Nc1ccc(N)cc1)c1ccc(OCc2ccccc2)cc1.O=C(O)C(F)(F)F is 10.7%

Value of inhibition reported for the molecule CCCCCC(=O)N[C@H](C(=O)NCc1ccc(C#N)cc1)c1ccc(OCc2ccccc2)cc1 is 25.6%

Value of inhibition reported for the molecule CCCCCC(=O)N[C@H](C(=O)N[C@@H](CCCCN)C(N)=O)c1ccc(OCc2ccccc2)cc1 is < 10%

Value of inhibition reported for the molecule CCCCCC(=O)N[C@H](C(=O)NCc1ccc(NC(=N)N)cc1)c1ccc(OCc2ccc(C(F)(F)F)cc2)cc1.O=C(O)C(F)(F)F is 100%

Value of inhibition reported for the molecule CCCCCC(=O)N[C@H](C(=O)NCc1cccc(CNC(=N)N)c1)c1ccc(OCc2ccccc2)cc1 is 32.7%

Value of inhibition reported for the molecule CCCCCC(=O)N[C@H](C(=O)NCCCCN)c1ccc(OCc2ccccc2)cc1 is < 10%

Value of inhibition reported for the molecule CCCCCC(=O)N[C@H](C(=O)NCc1ccc(NC(=N)N)cc1)c1ccc(OCc2ccc(C(C)(C)C)cc2)cc1.O=C(O)C(F)(F)F is 98.9%

Value of inhibition reported for the molecule CCCCCC(=O)N[C@H](C(=O)NCCN)c1ccc(OCc2ccccc2)cc1 is < 10%

Value of inhibition reported for the molecule N=C(N)NCCC[C@H](NC(=O)c1ccccc1)C(=O)N[C@@H](CCCCN)C(=O)NCC(N)=O (Bz-Arg-Lys-Gly-NH2) is 15.3%

Value of inhibition reported for the molecule CCCCCC(=O)N[C@H](C(=O)NCc1ccc(NC(N)=O)cc1)c1ccc(OCc2ccccc2)cc1 is 34.2%

Value of inhibition reported for the molecule N=C(N)Nc1ccc(CNC(=O)[C@@H](NC(=O)c2ccc(-c3ccc(Cl)cc3)cc2)c2ccc(OCc3ccccc3)cc2)cc1.O=C(O)C(F)(F)F is 99.9%

###

# maps each entry to its Ki
# system.under.test: Genome polyprotein (dengue virus type 2, UniProt P29990)
# Sequence (P29990 1346-1475 limits assumed): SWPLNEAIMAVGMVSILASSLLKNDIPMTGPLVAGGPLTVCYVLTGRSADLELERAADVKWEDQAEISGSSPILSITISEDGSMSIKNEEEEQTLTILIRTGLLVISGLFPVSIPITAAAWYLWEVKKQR
# Sequence (P29990 1476-2093 limits assumed): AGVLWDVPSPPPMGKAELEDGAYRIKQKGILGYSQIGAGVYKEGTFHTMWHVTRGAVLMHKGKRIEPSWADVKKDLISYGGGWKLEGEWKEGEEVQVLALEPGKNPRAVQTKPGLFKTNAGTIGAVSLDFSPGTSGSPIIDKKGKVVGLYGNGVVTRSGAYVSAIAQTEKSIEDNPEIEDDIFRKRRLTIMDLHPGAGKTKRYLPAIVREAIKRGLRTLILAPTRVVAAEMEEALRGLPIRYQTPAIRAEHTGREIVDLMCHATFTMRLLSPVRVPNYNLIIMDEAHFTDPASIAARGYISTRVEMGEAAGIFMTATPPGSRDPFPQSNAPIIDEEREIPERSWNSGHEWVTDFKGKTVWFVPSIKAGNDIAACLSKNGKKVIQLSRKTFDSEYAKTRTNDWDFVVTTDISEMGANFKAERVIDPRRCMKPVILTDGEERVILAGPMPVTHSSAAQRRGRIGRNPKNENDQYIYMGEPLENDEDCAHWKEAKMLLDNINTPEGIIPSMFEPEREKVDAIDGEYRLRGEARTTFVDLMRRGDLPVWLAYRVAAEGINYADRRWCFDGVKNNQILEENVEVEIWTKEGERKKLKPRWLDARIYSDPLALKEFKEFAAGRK
# assay.overview: Inhibition of Dengue virus serotype 2 NS2B-NS3 protease expressed in Escherichia coli BL21 lambda (DE3) cells using Abz-Nle-Lys-Arg-Arg-Ser-3-(NO2)Tyr as substrate preincubated for 15 mins followed by substrate addition and measured for 15 mins by FRET assay
# number only, unit µM dropped from output

N=C(N)Nc1ccc(CNC(=O)[C@@H](NC(=O)Cc2ccc(-c3ccccc3)cc2)c2ccc(OCc3c(Cl)cccc3Cl)cc2)cc1.O=C(O)C(F)(F)F: 0.46
CCCCCC(=O)N[C@H](C(=O)NCc1ccc(NC(=N)N)cc1)c1ccc(OCc2ccccc2)cc1.O=C(O)C(F)(F)F: 9.8

# ---- query compound ----
So the reported Ki for CCCCCC(=O)N[C@H](C(=O)NCc1ccc(CN)cc1)c1ccc(OCc2ccccc2)cc1.O=C(O)C(F)(F)F , on Genome polyprotein (dengue virus type 2, UniProt P29990), turned out to be 3.8

###

# maps each entry to its CC50 at 24 h
# assay.overview: Cytotoxicity against human HeLa cells assessed as reduction in cell viability measured after 24 hrs by celltiter-blue assay
# Format: cell-based

Examples from the recorded data:
N=C(N)NCCC[C@H](NC(=O)c1ccccc1)C(=O)N[C@@H](CCCCN)C(=O)N[C@@H](C(N)=O)c1ccc(OCc2ccccc2)cc1: > 100 µM
CCCCCC(=O)N[C@H](C(=O)Nc1ccc(N)cc1)c1ccc(OCc2ccccc2)cc1.O=C(O)C(F)(F)F: > 50 µM
CCCCCC(=O)N[C@H](C(=O)NCc1ccc(NC(=N)N)cc1)c1ccc(OCc2ccc(C#N)cc2)cc1.O=C(O)C(F)(F)F: > 50 µM
N=C(N)Nc1ccc(CNC(=O)[C@@H](NC(=O)c2ccccc2-c2ccccc2)c2ccc(OCc3ccccc3)cc2)cc1.O=C(O)C(F)(F)F: > 50 µM
CCCCCC(=O)N[C@H](C(=O)NCc1ccncc1)c1ccc(OCc2ccccc2)cc1: > 50 µM
N=C(N)Nc1ccc(CNC(=O)[C@@H](NC(=O)c2ccc(OCc3ccccc3)cc2)c2ccc(OCc3ccccc3)cc2)cc1.O=C(O)C(F)(F)F: > 12.5 µM

# ---- query compound ----
Value of CC50 at 24 h reported for the compound N=C(N)Nc1ccc(CNC(=O)[C@@H](NC(=O)c2ccc(-c3cccs3)s2)c2ccc(OCc3ccccc3)cc2)cc1.O=C(O)C(F)(F)F is > 50 µM

###

# system.under.test: Genome polyprotein (dengue virus type 2, UniProt P29990)
# assay.overview: Inhibition of Dengue virus serotype 2 NS2B-NS3 protease expressed in Escherichia coli BL21 lambda (DE3) cells using Abz-Nle-Lys-Arg-Arg-Ser-3-(NO2)Tyr as substrate preincubated for 15 mins followed by substrate addition and measured for 15 mins by FRET assay
Residues, ends and D or L forms follow the SMILES beside them. *: point of attachment. Bz = O=C(c1ccccc1)*
parameter.measured: IC50 (µM)
# number only, unit µM dropped from output

Examples from the recorded data:
N=C(N)Nc1ccc(CNC(=O)[C@@H](NC(=O)c2ccc(OCc3ccccc3)cc2)c2ccc(OCc3ccccc3)cc2)cc1.O=C(O)C(F)(F)F: 4.4
N=C(N)Nc1ccc(CNC(=O)[C@@H](NC(=O)Cc2ccc(-c3ccccc3)cc2)c2ccc(OCc3c(Cl)cccc3Cl)cc2)cc1.O=C(O)C(F)(F)F: 0.54
CCCCCC(=O)N[C@H](C(=O)NCc1ccc(NC(=N)N)nc1)c1ccc(OCc2ccccc2)cc1.O=C(O)C(F)(F)F: 19
CCCCCC(=O)N[C@H](C(=O)NCc1cccc(CN)c1)c1ccc(OCc2ccccc2)cc1: 30
N=C(N)Nc1ccc(CNC(=O)[C@@H](NC(=O)Cc2ccc(-c3ccccc3)cc2)c2ccc(OCc3ccccc3)cc2)cc1.O=C(O)C(F)(F)F: 1.3

Value of IC50 reported for the compound CCCCCC(=O)N[C@H](C(=O)NCc1ccc(CNC(=N)N)cc1)c1ccc(OCc2ccccc2)cc1.O=C(O)C(F)(F)F is 14

Value of IC50 reported for the compound N=C(N)NCCC[C@H](NC(=O)c1ccccc1)C(=O)N[C@@H](CCCCN)C(=O)NCC(N)=O (Bz-Arg-Lys-Gly-NH2) is 23

Value of IC50 reported for the compound N=C(N)NCCC[C@H](NC(=O)c1ccccc1)C(=O)N[C@@H](CCCCN)C(=O)N[C@@H](C(N)=O)c1ccc(OCc2ccccc2)cc1 is 0.68

Value of IC50 reported for the compound CCCCCC(=O)N[C@H](C(=O)NCc1ccc(NC(=N)N)cc1)c1ccc(OCc2ccc(C(C)(C)C)cc2)cc1.O=C(O)C(F)(F)F is 13

Value of IC50 reported for the compound N=C(N)Nc1ccc(CNC(=O)[C@@H](NC(=O)c2ccccc2-c2ccccc2)c2ccc(OCc3ccccc3)cc2)cc1.O=C(O)C(F)(F)F is 24

Value of IC50 reported for the compound N=C(N)Nc1ccc(CNC(=O)[C@@H](NC(=O)c2ccc(-c3ccc(Cl)cc3)cc2)c2ccc(OCc3ccccc3)cc2)cc1.O=C(O)C(F)(F)F is 2

Value of IC50 reported for the compound CCCCCC(=O)N[C@H](C(=O)NCc1ccc(NC(=N)N)cc1)c1ccc(OCc2ccccc2)cc1.O=C(O)C(F)(F)F is 11

Value of IC50 reported for the compound N=C(N)Nc1ccc(CNC(=O)[C@@H](NC(=O)c2ccc(OCc3ccc(Cl)cc3)cc2)c2ccc(OCc3ccccc3)cc2)cc1.O=C(O)C(F)(F)F is 2.2

Value of IC50 reported for the compound N=C(N)Nc1ccc(CNC(=O)[C@@H](NC(=O)c2ccc(-c3ccccc3)cc2)c2ccc(OCc3ccccc3)cc2)cc1.O=C(O)C(F)(F)F is 1.8

###

# system.under.test: UniProt P06935
# assay.overview: Inhibition of West Nile virus NS2B-NS3 protease expressed in Escherichia coli BL21 lambda (DE3) cells using Abz-Gly-Leu-Lys-Arg-Gly-Gly-3-(NO2)Tyr as substrate preincubated for 15 mins followed by substrate addition measured after 15 mins by HPLC analysis
parameter.measured: IC50 (µM)
# number only, unit µM dropped from output

Value of IC50 reported for the compound N=C(N)Nc1ccc(CNC(=O)[C@@H](NC(=O)c2ccc(-c3cccs3)s2)c2ccc(OCc3ccccc3)cc2)cc1.O=C(O)C(F)(F)F is 6.5
